Target: human TAS2R4 (Homo sapiens)
Construct: expressed in transfected cells; host or cells: HEK293T-Gα16gust44
Experiment: Calcium imaging assay (FLIPR), HEK293T-Gα16gust44 cells transfected with human TAS2R4; note: test concentration or dose not given here
Format: cell-based
Details: Time (s) 179.547
measured-metric: RLU, fluorescence trace (RLU)
Your answer is read as RLU, so omit the unit and give the number.

Identify measured RLU, fluorescence trace corresponding to `C[C@H](CCC(=O)O)[C@H]1CC[C@H]2[C@@H]3CC[C@@H]4C[C@H](O)CC[C@]4(C)[C@H]3C[C@H](O)[C@]12C`
368.586

Identify measured RLU, fluorescence trace corresponding to `C[C@H](CCC(=O)NCCS(=O)(=O)O)[C@H]1CC[C@H]2[C@@H]3[C@H](O)C[C@@H]4C[C@H](O)CC[C@]4(C)[C@H]3C[C@H](O)[C@]12C`
393.434

Identify measured RLU, fluorescence trace corresponding to `C[C@H](CCC(=O)O)[C@H]1CC[C@H]2[C@@H]3[C@@H](O)C[C@@H]4C[C@H](O)CC[C@]4(C)[C@H]3CC[C@]12C`
149.456

Identify measured RLU, fluorescence trace corresponding to `C[C@H](CCC(=O)NCCS(=O)(=O)O)[C@H]1CC[C@H]2[C@@H]3CC[C@@H]4C[C@H](O)CC[C@]4(C)[C@H]3CC[C@]12C`
180.442

Identify measured RLU, fluorescence trace corresponding to `C[C@H](CCC(=O)O)[C@H]1CC[C@H]2[C@@H]3[C@H](O)C[C@@H]4C[C@H](O)CC[C@]4(C)[C@H]3C[C@H](O)[C@]12C`
265.3

Identify measured RLU, fluorescence trace corresponding to `C[C@H](CCC(=O)NCC(=O)O)[C@H]1CC[C@H]2[C@@H]3[C@H](O)C[C@@H]4C[C@H](O)CC[C@]4(C)[C@H]3C[C@H](O)[C@]12C`
242.535

====

Biological target: human TAS2R4 (Homo sapiens, UniProt Q9NYW5)
Construct: expressed in transfected cells; host or cells: HEK293T-Gα16gust44
Sequence (Q9NYW5 1-299): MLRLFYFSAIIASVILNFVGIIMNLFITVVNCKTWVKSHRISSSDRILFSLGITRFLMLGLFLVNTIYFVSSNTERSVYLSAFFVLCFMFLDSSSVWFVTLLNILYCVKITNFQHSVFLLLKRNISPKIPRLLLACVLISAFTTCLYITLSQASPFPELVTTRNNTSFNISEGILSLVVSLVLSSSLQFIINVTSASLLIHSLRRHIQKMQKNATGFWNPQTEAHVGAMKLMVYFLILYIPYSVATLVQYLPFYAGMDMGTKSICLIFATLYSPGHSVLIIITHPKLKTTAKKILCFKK
Assay: Calcium imaging assay (FLIPR), HEK293T-Gα16gust44 cells transfected with human TAS2R4; note: test concentration or dose not given here
Assay type: cell-based
Conditions: Time (s) 2
Label true when RLU, fluorescence trace is strictly below -20 RLU; at or above that, label false.

Field: below-cutoff. Rule: recorded RLU, fluorescence trace strictly less than -20 RLU. Subject: `C[C@H](CCC(=O)NCCS(=O)(=O)O)[C@H]1CC[C@H]2[C@@H]3[C@H](O)C[C@@H]4C[C@H](O)CC[C@]4(C)[C@H]3C[C@H](O)[C@]12C`
true

Field: below-cutoff. Rule: recorded RLU, fluorescence trace strictly less than -20 RLU. Subject: `C[C@H](CCC(=O)O)[C@H]1CC[C@H]2[C@@H]3[C@@H](O)C[C@@H]4C[C@H](O)CC[C@]4(C)[C@H]3CC[C@]12C`
false

Field: below-cutoff. Rule: recorded RLU, fluorescence trace strictly less than -20 RLU. Subject: `C[C@H](CCC(=O)O)[C@H]1CC[C@H]2[C@@H]3[C@H](O)C[C@@H]4C[C@H](O)CC[C@]4(C)[C@H]3C[C@H](O)[C@]12C`
false

Field: below-cutoff. Rule: recorded RLU, fluorescence trace strictly less than -20 RLU. Subject: `C[C@H](CCC(=O)NCCS(=O)(=O)O)[C@H]1CC[C@H]2[C@@H]3CC[C@@H]4C[C@H](O)CC[C@]4(C)[C@H]3CC[C@]12C`
false

Field: below-cutoff. Rule: recorded RLU, fluorescence trace strictly less than -20 RLU. Subject: `C[C@H](CCC(=O)NCC(=O)O)[C@H]1CC[C@H]2[C@@H]3[C@H](O)C[C@@H]4C[C@H](O)CC[C@]4(C)[C@H]3C[C@H](O)[C@]12C`
false

Field: below-cutoff. Rule: recorded RLU, fluorescence trace strictly less than -20 RLU. Subject: `C[C@H](CCC(=O)O)[C@H]1CC[C@H]2[C@@H]3CC[C@@H]4C[C@H](O)CC[C@]4(C)[C@H]3C[C@H](O)[C@]12C`
true
